ASSAY_OVERVIEW: The amount of unchanged compound in urine collected at 0-36 hr after treatment
SETTINGS: rat
RESULT_TYPE: dose excreted
Give the value; after it, write the unit.

query: Can you look up the measured dose excreted of Cc1ncc([N+](=O)[O-])n1CC(=O)N1CCN(C(=O)Cn2c([N+](=O)[O-])cnc2C)CC1 for me?
result: 18.6%

query: Can you look up the measured dose excreted of O=[N+]([O-])c1c[nH]cn1 for me?
result: 39.9%

query: Can you look up the measured dose excreted of COC(=S)NCCn1c([N+](=O)[O-])cnc1C for me?
result: 21.5%

query: Can you look up the measured dose excreted of CCC(CC)C(O)Cn1c([N+](=O)[O-])cnc1C (stereo unspecified) for me?
result: 51.7%

query: Can you look up the measured dose excreted of Cn1c([N+](=O)[O-])cnc1/C=C/c1ccnc(N)n1 for me?
result: 16%

query: Can you look up the measured dose excreted of O=C1NCCN1c1ncc([N+](=O)[O-])s1 for me?
result: 7.3%

query: Can you look up the measured dose excreted of Cc1ncc([N+](=O)[O-])n1CC(O)CO (stereo unspecified) for me?
result: 64.3%

query: Can you look up the measured dose excreted of Cc1ncc([N+](=O)[O-])n1CC(O)Cn1c([N+](=O)[O-])cnc1C for me?
result: 22.8%

query: Can you look up the measured dose excreted of CN1CCN(Cc2ncc([N+](=O)[O-])n2C)CC1 for me?
result: 45.5%

query: Can you look up the measured dose excreted of CCN(CC)CCOCCn1c([N+](=O)[O-])cnc1C for me?
result: 28.5%

query: Can you look up the measured dose excreted of Cn1c([N+](=O)[O-])cnc1C=O for me?
result: 29.9%

query: Can you look up the measured dose excreted of Cc1ncc([N+](=O)[O-])n1CC(O)CCl (stereo unspecified) for me?
result: 29.6%

query: Can you look up the measured dose excreted of Cc1ncc([N+](=O)[O-])n1CCO for me?
result: 49.2%

query: Can you look up the measured dose excreted of Cc1ncc([N+](=O)[O-])n1CC(=O)Nc1ncccn1 for me?
result: 38.9%

query: Can you look up the measured dose excreted of Nc1ncc(S(=O)(=O)c2ccc([N+](=O)[O-])cc2)s1 for me?
result: 64.7%

query: Can you look up the measured dose excreted of CCS(=O)(=O)CCn1c([N+](=O)[O-])cnc1C for me?
result: 66.3%

Reference source for all entries: ChEMBL document CHEMBL1123508
